Tested on: RPMI-8226
Test: NCI tumour cell line growth inhibition, 48 h
Calls of active or inactive are those of the source. Rule as the data show it: active = GI50 up to about 1.1 µM and inactive = higher.
measured quantity: GI50

Lab note: need GI50 with RPMI-8226 for entry O=C(CSc1nnc(Cc2ccccc2)o1)Nc1cccc(Cl)c1 , please look it up.
72.4 µM (inactive)

Reported GI50 for RPMI-8226, given C=C1C(=O)O[C@@H]2C(=O)[C@@H](C)CCC/C(C)=C/CC[C@@]3(C)O[C@@H]3C[C@@H]12 ?
18.6 µM (inactive)

Find the measured GI50: item O=C(O)CCC(C(=O)O)N1C(=O)C2C3CCC(C3)C2C1=O (stereo unspecified) , target or system RPMI-8226.
> 100 µM (inactive)

Could you now consider this next molecule?
Return GI50 measured with RPMI-8226 given this molecule: CC1OC(n2cc(I)c(=O)[nH]c2=O)C=CC1=O (stereo unspecified)
13.9 µM (inactive)
